system_tested: HIV-1 protease (Human immunodeficiency virus type 1 group M subtype B)
Construct: The protease (or proteinase), consisting of only 99 amino acids, is among the smallest enzymes known
test_method_notes: In vitro HIV protease inhibitory assay (HIV Protease FITC Assay)
Format: biochemical
measurement_setup: HIV-1 Dose 1.000 uM; read-out: HIV-1 Protease % Inhib
measurement_name: inhibition at 1 µM (%)
The answer is to be given in %; state only the numeric part.

Problem: What value of measured inhibition at 1 µM is listed for CCCc1cc(O)c(C(c2ccccc2)C2CC2)c(=O)o1 (stereo not drawn) ?
Result: 50

Problem: Item: C=CCCc1cc(O)c(C(c2ccccc2)C2CC2)c(=O)o1 (stereo not drawn)
Result: 50.8

Problem: Item: CCC(c1ccccc1)c1c(O)cc(CCC2CC2)oc1=O (stereo not drawn)
Result: 27.9

Problem: Item: CC(C)CC(CC(C)C)c1cc(O)c(C(c2ccccc2)C2CC2)c(=O)o1 (stereo not drawn)
Result: 50.5

Problem: Item: CCC(Cc1cccc2ccccc12)c1cc(O)c(C(CC)c2ccccc2)c(=O)o1 (stereo not drawn)
Result: 11

Problem: Item: CCC(CC1CCCCC1)c1cc(O)c(C(c2ccccc2)C2CC2)c(=O)o1 (stereo not drawn)
Result: 11.6

Problem: Item: CCC(CC)c1cc(O)c(C(c2ccccc2)C2CC2)c(=O)o1 (stereo not drawn)
Result: 33.8
